src = PubChem BioAssay (EPA / NIEHS)

target: human CYP4F12, CYP4F12 (gene 66002) (UniProt Q9HCS2)
Sequence (Q9HCS2 whole entry, looked up): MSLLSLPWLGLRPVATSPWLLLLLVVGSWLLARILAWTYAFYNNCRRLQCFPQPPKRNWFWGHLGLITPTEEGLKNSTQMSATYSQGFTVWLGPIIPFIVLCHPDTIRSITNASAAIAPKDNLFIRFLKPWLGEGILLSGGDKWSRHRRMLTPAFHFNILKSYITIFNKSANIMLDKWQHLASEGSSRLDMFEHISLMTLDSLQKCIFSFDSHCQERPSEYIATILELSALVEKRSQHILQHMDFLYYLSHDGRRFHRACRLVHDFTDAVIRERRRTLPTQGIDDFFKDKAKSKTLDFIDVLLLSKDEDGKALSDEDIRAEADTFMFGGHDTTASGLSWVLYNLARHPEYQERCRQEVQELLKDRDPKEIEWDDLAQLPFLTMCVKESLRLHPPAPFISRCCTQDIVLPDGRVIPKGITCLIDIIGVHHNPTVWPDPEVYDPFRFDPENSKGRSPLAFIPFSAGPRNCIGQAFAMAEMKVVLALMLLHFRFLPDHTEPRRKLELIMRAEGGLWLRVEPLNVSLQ
measurement protocol: NVS_ADME_hCYP4F12: NovaScreen (NVS) CYP450-related Enzyme Activity (ADME) Assay for human CYP4F12 (AID 2283111)
Records with an inconclusive call do not appear. The source made the active and inactive calls. The calls were made as follows: active = hit-call score of the fitted dose curve at least 0.9, where 1 is the maximum; inconclusive = response in the unintended direction; inactive = score below 0.9.
measured parameter: AC50

Study these solved cases before continuing.
[
  {
    "compound": "CC(C)NCC(O)c1ccc(O)c(O)c1 (centres undefined)",
    "measured value": "2.13 µM (active)"
  },
  {
    "compound": "CC(C)CCCCCCc1ccc(O)cc1",
    "measured value": "inactive"
  },
  {
    "compound": "C[C@]12CC[C@@H]3c4ccc(O)cc4CC[C@H]3[C@@H]1CC[C@@H]2O",
    "measured value": "inactive"
  },
  {
    "compound": "CCc1ccc(O)c(C(C)(C)C)c1",
    "measured value": "inactive"
  },
  {
    "compound": "CCCCCCCCCC(=O)O",
    "measured value": "2.83 µM (active)"
  },
  {
    "compound": "O=C1NC(=O)C(c2ccccc2)(c2ccccc2)N1",
    "measured value": "inactive"
  }
]

Query: Form entry - test system: human CYP4F12, CYP4F12 (gene 66002) (UniProt Q9HCS2); read-out: AC50; compound: "CCOC(N)=O"
Response: inactive

Query: Form entry - test system: human CYP4F12, CYP4F12 (gene 66002) (UniProt Q9HCS2); read-out: AC50; compound: "S=C(S)NCCNC(=S)S.[Mn+2].[S-]C([S-])=NCCN=C([S-])[S-].[Zn+2]"
Response: inactive

Query: Form entry - test system: human CYP4F12, CYP4F12 (gene 66002) (UniProt Q9HCS2); read-out: AC50; compound: "COc1cccc([C@H](O)C2CCN(CCc3ccc(F)cc3)CC2)c1OC"
Response: 0.441 µM (active)

Query: Form entry - test system: human CYP4F12, CYP4F12 (gene 66002) (UniProt Q9HCS2); read-out: AC50; compound: "CNC(=O)[C@H]1O[C@@H](n2cnc3c(NCc4cc(Cl)ccc4OCc4cc(C)no4)ncnc32)[C@H](O)[C@@H]1N"
Response: inactive

Query: Form entry - test system: human CYP4F12, CYP4F12 (gene 66002) (UniProt Q9HCS2); read-out: AC50; compound: "CN1CCC[C@H]1c1cccnc1"
Response: inactive

Query: Form entry - test system: human CYP4F12, CYP4F12 (gene 66002) (UniProt Q9HCS2); read-out: AC50; compound: "CC[C@H](C)C(=O)O[C@H]1C[C@@H](C)C=C2C=C[C@H](C)[C@H](CC[C@@H]3C[C@@H](O)CC(=O)O3)[C@H]21"
Response: inactive

Query: Form entry - test system: human CYP4F12, CYP4F12 (gene 66002) (UniProt Q9HCS2); read-out: AC50; compound: "O=C=NCCCCCCN=C=O"
Response: 0.884 µM (active)

Query: Form entry - test system: human CYP4F12, CYP4F12 (gene 66002) (UniProt Q9HCS2); read-out: AC50; compound: Cc1nc(-c2ccc3c(c2)CCN(CCC2CCC(NC(=O)/C=C/c4ccc(F)cc4)CC2)CC3)no1 (centres undefined)
Response: inactive

---

Read-out: Interleukin-8 (IL8), CXCL8 (gene 3576)
measurement protocol: BSK_hDFCGF_IL8: BioMAP Diversity Plus: hDFCGF Assay for Interleukin-8 (IL8) Biomarker Activity (AID 2283058)
condition summary: primary human foreskin fibroblasts; actives raise or lower the signal
The source made the active and inactive calls. How the source made its calls: active means hit-call score of the fitted dose curve at least 0.9, where 1 is the maximum; inactive means score below 0.9.
The categories you may choose from are active, inactive

[
  {
    "compound": "CC1(C)[C@H](C(=O)O[C@H](C#N)c2cccc(Oc3ccccc3)c2)[C@@H]1C=C(Br)Br",
    "cat": "inactive"
  },
  {
    "compound": "O=c1c2ccccc2c(=O)c2c1cc(Cl)c1[nH]c3c([nH]c12)c(Cl)cc1c(=O)c2ccccc2c(=O)c13",
    "cat": "inactive"
  },
  {
    "compound": "CNC(=O)Oc1cc(C)c(SC)c(C)c1",
    "cat": "inactive"
  },
  {
    "compound": "O=[N+]([O-])C=Cc1ccccc1",
    "cat": "active"
  }
]

In the following, a different compound is considered.
Query: What classification did "O=[N+]([O-])c1ccc(Cl)cc1" end up with in this test?
Response: inactive

---

Read-out: Basic fibroblast growth factor (bFGF), FGF2 (gene 2247)
measurement protocol: BSK_MyoF_bFGF: BioMAP Diversity Plus: MyoF Assay for Basic fibroblast growth factor (bFGF) Biomarker Activity (AID 2284246)
condition summary: primary human lung fibroblasts
Activity calls are given as the source filed them. Rule for the calls: active = hit-call score of the fitted dose curve at least 0.9, where 1 is the maximum; inactive = score below 0.9.
The categories you may choose from are active, inactive

Solved entries (count: 3):
[
  {
    "molecule": "O=P1(NCCCl)OCCCN1CCCl (stereo unspecified)",
    "cat": "inactive"
  },
  {
    "molecule": "CCCCCCCCCCCC#N",
    "cat": "active"
  },
  {
    "molecule": "CC(C)(C)C(O)C(Oc1ccc(-c2ccccc2)cc1)n1cncn1 (stereo unspecified)",
    "cat": "active"
  }
]

Query: What classification did "O=c1c2ccccc2c(=O)c2c1cc(Cl)c1[nH]c3c([nH]c12)c(Cl)cc1c(=O)c2ccccc2c(=O)c13" end up with in this test?
Response: inactive

Query: What classification did "Clc1ccc(-c2ccccc2)cc1" end up with in this test?
Response: inactive

Query: What classification did "O=C1C(Cl)=C(Cl)C(=O)C(Cl)=C1Cl" end up with in this test?
Response: active

Query: What classification did "CC(=O)/C=C/c1ccccc1" end up with in this test?
Response: inactive

Query: What classification did "CC(C)CCCCCCCOC(=O)c1ccccc1C(=O)OCCCCCCCC(C)C" end up with in this test?
Response: inactive

Query: What classification did "O=[N+]([O-])C=Cc1ccccc1" end up with in this test?
Response: active

Query: What classification did "O=c1[nH]c(Cl)c(Cl)cc1Cl" end up with in this test?
Response: inactive

Query: What classification did "CC1(C)[C@H](C(=O)O[C@H](C#N)c2cccc(Oc3ccccc3)c2)[C@@H]1C=C(Br)Br" end up with in this test?
Response: inactive

Query: What classification did "O=C(O)CCCc1ccc(N(CCCl)CCCl)cc1" end up with in this test?
Response: inactive

Query: What classification did "CCCOC(=O)c1ccccc1C(=O)OCCC" end up with in this test?
Response: inactive

Query: What classification did "O=S(=O)(c1ccccc1)c1ccccc1" end up with in this test?
Response: inactive

Query: What classification did "CC(C)CCCCCCCOP(=O)(Oc1ccccc1)Oc1ccccc1" end up with in this test?
Response: active

Query: What classification did "CC(C)COP(=O)(OCC(C)C)OCC(C)C" end up with in this test?
Response: inactive

Query: What classification did "CC(C)(c1cc(Cl)c(O)c(Cl)c1)c1cc(Cl)c(O)c(Cl)c1" end up with in this test?
Response: active

Query: What classification did CCC(C)c1cc([N+](=O)[O-])cc([N+](=O)[O-])c1OC(=O)C=C(C)C (stereo unspecified) end up with in this test?
Response: active

---

target: bovine Gamma-Aminobutyric Acid Type A Receptor BDZ, alpha 1 site (GABARa1), GABRA1 (gene 780973) (UniProt P08219)
Sequence (P08219 whole entry, looked up): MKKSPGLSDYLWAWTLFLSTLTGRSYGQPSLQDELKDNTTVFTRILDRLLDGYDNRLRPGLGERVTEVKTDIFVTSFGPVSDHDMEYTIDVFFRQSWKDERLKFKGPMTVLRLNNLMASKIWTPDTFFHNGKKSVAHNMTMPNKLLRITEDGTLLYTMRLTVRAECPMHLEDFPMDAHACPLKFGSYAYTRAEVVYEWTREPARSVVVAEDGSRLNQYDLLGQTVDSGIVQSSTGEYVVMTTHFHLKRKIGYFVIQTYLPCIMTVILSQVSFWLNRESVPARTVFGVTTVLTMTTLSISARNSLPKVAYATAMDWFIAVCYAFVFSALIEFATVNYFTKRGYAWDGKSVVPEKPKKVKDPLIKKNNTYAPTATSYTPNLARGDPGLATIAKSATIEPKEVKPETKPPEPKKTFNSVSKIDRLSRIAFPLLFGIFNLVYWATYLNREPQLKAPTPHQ
measurement protocol: NVS_LGIC_bGABARa1: NovaScreen (NVS) Ligand-Gated Ion Channel Assay for bovine Gamma-Aminobutyric Acid Type A Receptor BDZ, alpha 1 site (GABARa1) (AID 2283321)
Results filed as inconclusive are left out. Calls of active or inactive are those of the source. Rule for the calls: active = hit-call score of the fitted dose curve at least 0.9, where 1 is the maximum; inconclusive = response in the unintended direction; inactive = score below 0.9.
The categories you may choose from are active, inactive

[
  {
    "structure as smiles": "CN(C)CCCN1c2ccccc2Sc2ccc(Cl)cc21",
    "cat": "inactive"
  },
  {
    "structure as smiles": "NC(=Nc1ccccc1)Nc1ccccc1",
    "cat": "active"
  },
  {
    "structure as smiles": "CNCc1ccc(NC(=O)c2c[nH]c3c2C(=O)CCC3)cc1",
    "cat": "active"
  },
  {
    "structure as smiles": "C#C[C@]1(O)CC[C@H]2[C@@H]3CCC4=CC(=O)CC[C@@H]4[C@H]3CC[C@@]21CC",
    "cat": "active"
  },
  {
    "structure as smiles": "COc1cccc(-c2ccc(/C=C\\CN3CCCCCC3)cc2Cl)c1",
    "cat": "active"
  },
  {
    "structure as smiles": "NC(=O)Cn1c(=O)cc(CCN2CCN(c3nccc4sccc34)CC2)c2ccc(F)cc21",
    "cat": "active"
  },
  {
    "structure as smiles": "CCn1nc(C)c2c1C(=O)NCC(c1ccc(O)cc1)=N2",
    "cat": "inactive"
  },
  {
    "structure as smiles": "CCCCc1ccc2c(n1)[C@@H](c1ccc(OC)cc1C[C@H](C)C(=O)O)[C@H](C(=O)O)[C@H]2c1ccc2c(c1)OCO2",
    "cat": "inactive"
  }
]

In the following, a different compound is considered.
Query: What classification did "C/C=C/C=C/C(=O)O" end up with in this test?
Response: active
